assay: binders of probe aHhip on microarray, primary screen, stem cell growth factor project, biochemical, small-molecule microarray, fluorescence 635/667 (AID 1087); settings: higher = more signal;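 note: score merges spot fluorescence at 667nm with spot signal to noise ratio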
I would appreciate it if you labelled entries class 1 when composite z-score is -0.02 or higher, otherwise class 0.

Query: Quick check: does COc1ccc([Si](C)(C)[C@H]2[C@H](CCO)O[C@@]3(C(=O)N(Cc4ccccc4)c4ccc(N5CCOC5=O)cc43)[C@@H]2C)cc1 have composite z-score greater than or equal to -0.02?
Result: class 0

Query: Quick check: does C=C[C@H](C)[C@H](OC(=O)Nc1ccc(OC)cc1)c1ccc(OCCO)cc1 have composite z-score greater than or equal to -0.02?
Result: class 1

Query: Quick check: does [N-]=[N+]=Nc1ccccc1C[C@]1(C(=O)O)N=C(c2ccc(OCCCO)cc2)O[C@H]1c1ccccc1N=[N+]=[N-] have composite z-score greater than or equal to -0.02?
Result: class 1

Query: Quick check: does Cc1ccc(S[C@]2(C(=O)NCC(C)C)CC(=O)N(C3Cc4ccccc4C3)[C@@H]2c2ccc(CO)cc2I)cc1 have composite z-score greater than or equal to -0.02?
Result: class 1

Query: Quick check: does CCOC(=O)C[C@H]1[C@H](OC(=O)c2ccc(-c3ccccc3)cc2)[C@@H](NC(=O)CC(C)C)c2cc(OCCCO)ccc2N1C(=O)c1ccccc1 have composite z-score greater than or equal to -0.02?
Result: class 0

Query: Quick check: does C[C@]1(C(=O)NCCN2CCOCC2)c2ccccc2C(=O)N(Cc2cc(F)cc(C(F)(F)F)c2)[C@H]1c1ccc(CO)cc1 have composite z-score greater than or equal to -0.02?
Result: class 0

Query: Quick check: does Cc1ccc(N2C(=O)c3ccccc3[C@](C)(C(=O)NCc3ccccc3)[C@@H]2c2ccc(CO)cc2)nc1 have composite z-score greater than or equal to -0.02?
Result: class 1

----------
assay: mitochondrial membrane potential change in A549 cells, profiling panel, cell-based, JC-1 fluorescence, basal, 24 h, 100 nL (AID 1138); conditions: higher = more signal;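 note: A549 lung adenocarcinoma cells under basal conditions with no added stimulus; test concentration not given here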
I would appreciate it if you labelled entries Satisfied when z-score is -0.1 or higher, otherwise Not satisfied.

Query: Quick check: does COCCOC(=O)N1C(=O)[C@@]2(c3cc(C#Cc4ccc(OC)cc4)ccc31)[C@H](c1ccc(OCCO)cc1)N1[C@H](c3ccccc3)[C@H](c3ccccc3)OC(=O)[C@H]1[C@@H]2C(=O)Nc1nc2ccccc2s1 have z-score greater than or equal to -0.1?
Result: Not satisfied

Query: Quick check: does COc1ccc([Si](C)(C)[C@@H]2[C@@H](CC(=O)N3Cc4ccccc4C[C@H]3CO)O[C@]3(C(=O)N(c4ccccc4)c4ccccc43)[C@H]2C)cc1 have z-score greater than or equal to -0.1?
Result: Satisfied

Query: Quick check: does CCCCCCCCCCC(O)C1C=CC2C(=O)N(c3ccccc3)C(=O)C2N1Nc1ccccc1F (stereo unspecified) have z-score greater than or equal to -0.1?
Result: Not satisfied

Query: Quick check: does CCN(CC)c1ccc(N2CC=CC34O[C@@H]5C=CCCOC(=O)C5[C@H]3C(=O)N(CCO)[C@@H]4C2=O)cc1 (stereo partly specified) have z-score greater than or equal to -0.1?
Result: Satisfied

Query: Quick check: does COc1ccc(C#Cc2ccc3c(c2)[C@]2(C(=O)N3)[C@H](c3ccc(OCCO)cc3)N3[C@H](c4ccccc4)[C@H](c4ccccc4)OC(=O)[C@H]3[C@@H]2C(=O)N2CCc3cc(OC)c(OC)cc3C2)cc1 have z-score greater than or equal to -0.1?
Result: Not satisfied

Query: Quick check: does COC(=O)C(CC#Cc1ccc2c(c1)[C@]1(C(=O)N2)[C@H](c2ccc(O)cc2)N2[C@H](c3ccccc3)[C@H](c3ccccc3)OC(=O)[C@H]2[C@@H]1C(=O)N1CCCCCCC1)C(=O)OC have z-score greater than or equal to -0.1?
Result: Satisfied

----------
target: Torsin-1A-interacting protein 2 (Homo sapiens) (UniProt Q8NFQ8); experiment: LULL1 binders on small-molecule microarray, primary screen, cell lysate, human LULL1 lysate, 635/667 nm fluorescence (AID 1092); details: hLULL1 lysate binding, 635 nm fluorescence, higher = more signal;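 note: probe is lysate of COS7 cells overexpressing human LULL1; score merges per-feature 667 nm fluorescence with signal-to-noise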
Sequence (Q8NFQ8 whole entry, looked up): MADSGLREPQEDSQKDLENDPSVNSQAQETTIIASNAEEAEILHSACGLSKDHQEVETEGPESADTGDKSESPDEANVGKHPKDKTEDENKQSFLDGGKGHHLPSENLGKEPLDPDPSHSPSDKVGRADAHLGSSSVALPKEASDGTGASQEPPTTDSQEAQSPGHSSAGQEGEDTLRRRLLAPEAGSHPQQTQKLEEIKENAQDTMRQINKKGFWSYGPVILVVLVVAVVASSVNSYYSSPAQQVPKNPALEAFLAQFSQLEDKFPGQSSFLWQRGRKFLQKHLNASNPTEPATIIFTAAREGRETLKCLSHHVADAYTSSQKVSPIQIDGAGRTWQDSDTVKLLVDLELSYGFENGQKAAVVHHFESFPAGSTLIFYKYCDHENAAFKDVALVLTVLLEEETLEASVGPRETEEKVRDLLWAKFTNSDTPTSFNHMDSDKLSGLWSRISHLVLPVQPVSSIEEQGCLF
For each entry below, report its composite z-score value.
# output: bare number, no unit

Query: Form field - read-out: composite z-score; system: Torsin-1A-interacting protein 2 (Homo sapiens) (UniProt Q8NFQ8); submitted item: COc1cc(NN2C(C(O)C3CCCCC3)C=CC3C(=O)N(C)C(=O)C32)cc(OC)c1OC (stereo unspecified)
Result: 3.46

Query: Form field - read-out: composite z-score; system: Torsin-1A-interacting protein 2 (Homo sapiens) (UniProt Q8NFQ8); submitted item: O=C1O[C@H](c2ccccc2)[C@H](c2ccccc2)N2[C@H]1[C@@H](C(=O)N1CCCCCCC1)[C@]1(C(=O)Nc3ccc(C#CC4(O)CCCCCC4)cc31)[C@H]2c1ccccc1OCCO
Result: 5.1

Query: Form field - read-out: composite z-score; system: Torsin-1A-interacting protein 2 (Homo sapiens) (UniProt Q8NFQ8); submitted item: COCCOC(=O)N1C(=O)[C@@]2(c3cc(C#CCCO)ccc31)[C@H](C(=O)N1CCCCCCC1)[C@H]1C(=O)O[C@H](c3ccccc3)[C@H](c3ccccc3)N1[C@@H]2c1ccccc1OCCO
Result: 4

Query: Form field - read-out: composite z-score; system: Torsin-1A-interacting protein 2 (Homo sapiens) (UniProt Q8NFQ8); submitted item: CC(=O)NCCCC[C@@H]1NC(=O)[C@@H]2C[C@H](C(=O)NCCCCCCN)[C@H](c3cccc(OCCO)c3)N2C1=O
Result: 2.3

Query: Form field - read-out: composite z-score; system: Torsin-1A-interacting protein 2 (Homo sapiens) (UniProt Q8NFQ8); submitted item: C=CCC(OC(C)=O)[C@@H]1[C@@H](N(Cc2cccc3ccccc23)C(=O)Cc2ccc(F)cc2)c2cc(OCCCO)ccc2N1C(=O)c1ccc(-c2ccccc2)cc1 (stereo partly specified)
Result: 0.451

Query: Form field - read-out: composite z-score; system: Torsin-1A-interacting protein 2 (Homo sapiens) (UniProt Q8NFQ8); submitted item: O=C1O[C@H](c2ccccc2)[C@H](c2ccccc2)N2[C@H]1[C@@H](C(=O)Nc1nc3ccccc3s1)[C@]1(C(=O)Nc3ccc(C#CC4=CCCCC4)cc31)[C@H]2c1ccc(O)cc1
Result: 2.88

----------
For each entry below, report its composite z-score value.
assay: small-molecule microarray binders of probe aWnt5a, primary screen, biochemical, biotinylated probe, 635/667 nm fluorescence (AID 1113); settings: higher = more signal;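 note: score merges 667 nm fluorescence intensity with signal-to-noise per printed feature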
# output: bare number, no unit

Query: # lookup: composite z-score of O=C(NCCN1CCOCC1)[C@@H]1c2ccccc2C(=O)N(Cc2ccccc2)[C@H]1c1ccc(CO)cc1
Result: -0.219

Query: # lookup: composite z-score of COCCCNC(=O)[C@@]1(c2ccc([N+](=O)[O-])cc2)CC(=O)N(C(C)C)[C@@H]1c1ccc(CO)cc1
Result: 0.0559

Query: # lookup: composite z-score of COc1cc2c(cc1OC)CN(C(=O)[C@@H]1[C@H]3C(=O)O[C@H](c4ccccc4)[C@H](c4ccccc4)N3[C@H](c3ccc(O)cc3)[C@@]13C(=O)Nc1ccc(C#CCCO)cc13)CC2
Result: -0.0538

Query: # lookup: composite z-score of CCOC(=O)C[C@H]1[C@H](OC(=O)c2ccc(-c3ccccc3)cc2)[C@@H](NC(=O)CC(C)C)c2cc(OCCCO)ccc2N1C(=O)c1ccccc1
Result: -0.0718

Query: # lookup: composite z-score of CCCCCCCCCCC(O)C1C=CC2C(=O)N(c3ccccc3)C(=O)C2N1Nc1ccccc1F (stereo not given)
Result: -0.0715

----------
For each entry below, report its composite z-score value.
test system: glycogen synthase kinase-3 (GSK3A per assay name; protocol says GSK3B); test: GSK3 binders on small-molecule microarrays, primary screen, biochemical, small-molecule microarray, 635 nm fluorescence, GSK3A (AID 1103); settings: small-molecule microarray binding, fluorescence 635 nm; higher = more signal; note: the record names both GSK3A and GSK3B
# output: bare number, no unit

Query: # lookup: composite z-score of Cc1ccccc1C(O)C1C=CC2C(=O)NC(=O)C2N1Nc1ccc(Cl)cc1Cl (stereo not given)
Result: 0.332

Query: # lookup: composite z-score of C=C(C(=O)CC[C@H](OC(=O)c1ccccc1-c1ccccc1C(=O)O)c1ccccc1OCCO)C(C)C
Result: 0.304

Query: # lookup: composite z-score of C=C(COC)/C(=C/C[C@H](OC(C)=O)c1cccc(OCCO)c1)c1cnc2ccccc2c1
Result: 0.965

Query: # lookup: composite z-score of C=C(COC)C(=O)CC[C@H](OC(C)=O)c1ccc(OCCO)cc1
Result: -0.143

Query: # lookup: composite z-score of O=C1C2C=CC(C(O)c3ccc4c(c3)OCO4)N(Nc3ccccc3)C2C(=O)N1c1ccccc1 (stereo not given)
Result: -0.157
